- tested target: 5-hydroxytryptamine receptor 2A (Homo sapiens)
- assay comment: 5-hydroxytryptamine receptor 2A (HTR2A) small molecule agonists, cell-based qHTS assay (AID 1963587); also: % is scaled to controls: 0 for no effect and ±100 for the full control effect; nearly all actives have a fitted effect of over 30% in size
- protocol conditions: HTR2A-CHO cells, calcium flux fluorescence, agonist mode; series mostly up to 76.8 µM
Records with an inconclusive call do not appear. Calls of active or inactive are those of the source. Calls follow the shape of the full dose curve.
measure name: activation

// known answers, use as guide
CCCCCCCCCCCCCC=O | -1.86% [at 7.02 µM] (inactive)
C=CCOc1c(Br)cc(Br)cc1Br | inactive
Cc1cc(=O)oc2cc(O[C@@H]3SC[C@@H](O)[C@H](O)[C@H]3O)ccc12 | inactive
CCCCCCCCCCCC(C)=O | inactive
CCc1ccc(CC)cc1 | inactive

Proceed to the following item.
Recorded activation for "CCCCC(=O)OCC(=O)[C@H]1[C@H](C)C[C@H]2[C@@H]3C[C@H](F)C4=CC(=O)C=C[C@]4(C)[C@@]3(F)[C@@H](O)C[C@@]21C" , please?
inactive
